Test system: Echinochloa crus-galli (ECHCG)
Experiment: Glasshouse assay for herbicidal activity (pre- and post-emergence), percentage phytotoxicity
Format: in vivo
Conditions: Echinochloa crus-galli, post-emergence, 360 h, Rate 250 g/ha; post-emergence; visual assessment 15 DAA; 100%=total damage, 0%=no damage; read-out: Post-emergence herbicidal activity (percentage phytotoxicity) ECHCG POST
property_label: pest or weed control at 250 g/ha (%)
Return type: number; implicit unit %.

Below, 5 compounds whose answers are already recorded.
compound	study_target	pest or weed control at 250 g/ha / %
Cc1cc(C)c(C2=C(OC(=O)C(C)(C)C)CC(CC(=O)NC3COC3)C2=O)c(C)c1 (stereo not drawn) [Compound P13]	Echinochloa crus-galli (ECHCG)	80
COc1ccc(CNC(=O)CC2CC(=O)C(c3c(C)cc(-c4ncc(Cl)cn4)cc3C)C2=O)cc1 (stereo not drawn) [Compound B356]	Echinochloa crus-galli (ECHCG)	100
COCCCNC(=O)CC1CC(OC(=O)C(C)(C)C)=C(c2c(C)cc(C)cc2C)C1=O (stereo not drawn) [Compound P10]	Echinochloa crus-galli (ECHCG)	90
C#CC(C)(C)NC(=O)CC1CC(=O)C(c2c(C)cc(-c3ccc(Cl)cn3)cc2C)C1=O (stereo not drawn) [Compound B363]	Echinochloa crus-galli (ECHCG)	100
Cc1cc(-c2ncc(Cl)cn2)cc(C)c1C1C(=O)CC(CC(=O)N(C)C(C)(C)C)C1=O (stereo not drawn) [Compound B348]	Echinochloa crus-galli (ECHCG)	100

Sure, the documented pest or weed control at 250 g/ha for C=CC(C)NC(=O)CC1CC(=O)C(c2c(C)cc(-c3ccc(F)cn3)cc2C)C1=O (stereo not drawn) [Compound B390] is 90

Sure, the documented pest or weed control at 250 g/ha for CCN(C)C(=O)CC1CC(=O)C(c2c(C)cc(-c3ncc(Cl)cn3)cc2C)C1=O (stereo not drawn) [Compound B347] is 100

Sure, the documented pest or weed control at 250 g/ha for Cc1cc(-c2ncc(Cl)cn2)cc(C)c1C1C(=O)CC(CC(=O)NCc2cccc(Br)c2)C1=O (stereo not drawn) [Compound B339] is 100

Sure, the documented pest or weed control at 250 g/ha for C=C(C)CNC(=O)CC1CC(=O)C(c2c(C)cc(-c3ncc(Cl)cn3)cc2C)C1=O (stereo not drawn) [Compound B341] is 100

Sure, the documented pest or weed control at 250 g/ha for C#CCN(C)C(=O)CC1CC(=O)C(c2c(C)cc(-c3ncc(F)cn3)cc2C)C1=O (stereo not drawn) [Compound B334] is 100

Sure, the documented pest or weed control at 250 g/ha for Cc1cc(-c2ccc(F)cn2)cc(C)c1C1C(=O)CC(CC(=O)NCc2cccs2)C1=O (stereo not drawn) [Compound B397] is 100

Sure, the documented pest or weed control at 250 g/ha for Cc1cc(-c2ccc(F)cn2)cc(C)c1C1C(=O)CC(CC(=O)NC/C=C/Cl)C1=O (stereo not drawn) [Compound B400] is 100
